targetOrSystem: immunoproteasome LMP7/B5i subunit (Homo sapiens, UniProt P20618+P28062)
assayExplanation: Caliper-based proteasome enzymatic activity assay, LMP7
Assay type: biochemical
assayContext: human recombinant immunoproteasome 0.3 nM, FAM-peptide substrate 1 μM, 3 h at rt
pIC50: −log10 of the molar value.
quantity: pIC50

C=CC(=O)N1CCC[C@@H]1COC(=O)N[C@@H](Cc1ccccc1)B(O)O ... 6.91
CC(C)(C=C(C#N)C(=O)N1CC(F)(F)C[C@@H]1COC(=O)N[C@@H](Cc1coc2ccccc12)B(O)O)N1CCOCC1 ... 8.77
CC(C)(C=C(C#N)C(=O)N1CCCCC[C@@H]1COC(=O)N[C@@H](Cc1coc2ccccc12)B(O)O)N1CCC(F)(F)C1 ... 8.60

1: Cc1ccc(C[C@H](NC(=O)OC[C@H]2CCCCN2C(=O)C(C#N)=CC(C)(C)N2CCOCC2)B(O)O)cc1
2: CC(C)C=C(C#N)C(=O)N1CCCCC1CCC(=O)N[C@@H](Cc1ccccc1)B(O)O (single isomer, unassigned) [Example 6]
Sort 1 and 2 by pIC50 descending and give the first. Record your answer as the label of the chosen record.
1

---

targetOrSystem: immunoproteasome LMP7/B5i subunit (Homo sapiens, UniProt P20618+P28062)
assayExplanation: Caliper-based proteasome enzymatic activity assay, LMP7
assayContext: human recombinant immunoproteasome 0.3 nM, FAM-peptide substrate 1 μM, 3 h at rt
quantity: IC50 (nM)

Before answering, review these 2 worked examples.
CC(C)(C=C(C#N)C(=O)N1CCCC[C@@H]1COC(=O)N[C@@H](Cc1ccccc1)B(O)O)N1CCOCC1 ... 2.9
CN(C)C/C=C/C(=O)N1CCC[C@@H]1COC(=O)N[C@@H](Cc1coc2ccccc12)B(O)O ... 1.3

a: CC(C)(C=C(C#N)C(=O)N1CCCCC[C@H]1COC(=O)N[C@@H](Cc1coc2ccccc12)B(O)O)N1CCC(F)(F)C1
b: COc1cccc(C[C@H](NC(=O)OC[C@H]2CCCCN2C(=O)C(C#N)=CC(C)(C)C)B(O)O)c1
# min-compare on IC50 between a and b Record your answer as the label of the chosen record.
a

---

targetOrSystem: immunoproteasome LMP7/B5i subunit (Homo sapiens, UniProt P20618+P28062)
assayExplanation: Caliper-based proteasome enzymatic activity assay, LMP7
assayContext: human recombinant immunoproteasome 0.3 nM, FAM-peptide substrate 1 μM, 3 h at rt
Excerpt: A Caliper-based proteasome assay (Caliper Life Sciences, Hopkinton, Mass.) was used to measure inhibition of the immunoproteasome LMP7/B5i subunit, the immunoproteasome LPM2/β1i subunit, and the constitutive proteasome β5c unit for a compound of Formula (I). […] The peptide cleavage reaction product was quantified on a Caliper LabChip 3000. […]
pIC50: −log10 of the molar value.
quantity: pIC50

Before answering, review these 2 worked examples.
CC(C)(C=C(C#N)C(=O)N1CCCC[C@@H]1COC(=O)N[C@@H](Cc1coc2ccccc12)B(O)O)N1CCCC(F)(F)C1 [Example 62] ... 8.80
CC(C)(C=C(C#N)C(=O)N1CCCC[C@@H]1COC(=O)N[C@@H](Cc1ccc(F)cc1)B(O)O)N1CCN(C2COC2)CC1 [Example 127] ... 8.30

P: CC(C)(C=C(C#N)C(=O)N1CCCC[C@@H]1COC(=O)N[C@@H](Cc1ccc(F)cc1)B(O)O)N1CCC(F)(F)C1 [Example 82]
Q: CC(C)(C)C=C(C#N)C(=O)N1C[C@H]2C[C@H]2[C@@H]1COC(=O)N[C@@H](Cc1ccccc1)B(O)O [Example 37]
R: CC(C)(C=C(C#N)C(=O)N1C[C@@H]2C[C@@H]2[C@@H]1COC(=O)N[C@@H](Cc1ccc(F)cc1)B(O)O)N1CCOCC1 [Example 123]
Please list the entries, largest pIC50 first. Please reply with the labels ordered as requested. Many thanks.
P, Q, R

I: CC(C)(C=C(C#N)C(=O)N1CCCC[C@@H]1COC(=O)N[C@@H](Cc1coc2ccccc12)B(O)O)N1CCOCC1 [Example 46]
II: CC(C)(C)C=C(C#N)C(=O)N1CCCC[C@@H]1COC(=O)N[C@@H](Cc1ccccc1)B(O)O [Example 15]
# min-compare on pIC50 between I and II Record your answer as the label of the chosen record.
II
(II: 8.26, I: 9.00)

---

targetOrSystem: constitutive proteasome β5c unit (Homo sapiens, UniProt P20618+P28074)
assayExplanation: Caliper-based proteasome enzymatic activity assay, β5c
assayContext: human recombinant constitutive proteasome 0.3 nM, FAM-peptide substrate 1 μM, 3 h at rt; read-out: β5c subunit IC50
quantity: IC50 (nM)

CC(C)(C)/C=C(\C#N)C(=O)N1C[C@@H](F)C[C@@H]1COC(=O)N[C@@H](Cc1ccccc1)B(O)O ... 1130
CC(C)(C=C(C#N)C(=O)N1C[C@@H]2C[C@@H]2[C@@H]1COC(=O)N[C@@H](Cc1coc2ccccc12)B(O)O)N1CCC(F)(F)C1 ... 192
CC(C)(C)C=C(C#N)C(=O)N1C[C@H]2C[C@H]2[C@@H]1COC(=O)N[C@@H](Cc1ccccc1)B(O)O ... 1960

1: CC(C)(C)C=C(C#N)C(=O)N1CCC[C@@H]1COC(=O)N[C@@H](Cc1coc2ccccc12)B(O)O
2: CC(C)C=C(C#N)C(=O)N1CCCCC1CCC(=O)N[C@@H](Cc1ccccc1)B(O)O (single isomer, unassigned) [Example 5]
3: CC(C)(C)C=C(C#N)C(=O)N1C[C@@H]2C[C@@H]2[C@@H]1COC(=O)N[C@@H](Cc1coc2ccccc12)B(O)O
4: CC(C)(C=C(C#N)C(=O)N1CCOC[C@@H]1COC(=O)N[C@@H](Cc1coc2ccccc12)B(O)O)N1CCC(F)(F)C1
Please list the entries, largest IC50 first. Please reply with the labels ordered as requested. Many thanks.
2, 1, 3, 4

P: C=CC(=O)N1C[C@@H]2C[C@@H]2[C@@H]1COC(=O)N[C@@H](Cc1ccccc1)B(O)O
Q: CC(C)(C=C(C#N)C(=O)N1CCOC[C@@H]1COC(=O)N[C@@H](CCc1ccccc1)B(O)O)N1CCC(F)(F)C1
R: CN1CCN(C(C)(C)C=C(C#N)C(=O)N2CCC[C@@H]2COC(=O)N[C@@H](Cc2coc3ccccc23)B(O)O)CC1
Number of compounds to sort: 3. Sort criterion: IC50, ascending. Please reply with the labels ordered as requested. Many thanks.
R, P, Q
(R: 225 nM, P: 1990 nM, Q: 3270 nM)

P: CN(CC(F)(F)F)C(C)(C)C=C(C#N)C(=O)N1CCCC[C@@H]1COC(=O)N[C@@H](Cc1ccccc1)B(O)O
Q: CC(C)(C=C(C#N)C(=O)N1CCCC[C@@H]1COC(=O)N[C@@H](Cc1ccc(S(C)(=O)=O)cc1)B(O)O)N1CCC(F)(F)C1
# min-compare on IC50 between P and Q Record your answer as the label of the chosen record.
Q
(Q: 550 nM, P: 3970 nM)

---

targetOrSystem: immunoproteasome LPM2/β1i subunit (Homo sapiens, UniProt P28065+P40306)
assayExplanation: Caliper-based proteasome enzymatic activity assay, LMP2
assayContext: human recombinant immunoproteasome 0.3 nM, FAM-peptide substrate 1 μM, 2 h at rt
quantity: IC50 (µM)

CC(C)C=C(C#N)C(=O)N1CCCCC1CCC(=O)N[C@@H](Cc1ccccc1)B(O)O (single isomer, unassigned) [Example 6] ... 0.965

a: CC(C)(C)/C=C(\C#N)C(=O)N1C[C@@H](F)C[C@@H]1COC(=O)N[C@@H](Cc1ccccc1)B(O)O
b: CC(C)C=C(C#N)C(=O)N1CCCC1CCC(=O)N[C@@H](Cc1ccccc1)B(O)O (single isomer, unassigned) [Example 4]
Sort a and b by IC50 descending and give the first. Record your answer as the label of the chosen record.
a
(a: 4.49 µM, b: 2.44 µM)

---

targetOrSystem: constitutive proteasome β5c unit (Homo sapiens, UniProt P20618+P28074)
assayExplanation: Caliper-based proteasome enzymatic activity assay, β5c
assayContext: human recombinant constitutive proteasome 0.3 nM, FAM-peptide substrate 1 μM, 3 h at rt; read-out: β5c subunit IC50
pIC50: −log10 of the molar value.
quantity: pIC50

CC(C)(C=C(C#N)C(=O)N1CCCC[C@@H]1COC(=O)N[C@@H](Cc1ccccc1)B(O)O)N1CCC(F)(F)CC1 ... 5.62

a: COc1ccc(C[C@H](NC(=O)OC[C@H]2CCCCN2C(=O)C(C#N)=CC(C)(C)C)B(O)O)cc1
b: Cc1ccc(C[C@H](NC(=O)OC[C@H]2COCCN2C(=O)C(C#N)=CC(C)(C)C)B(O)O)cc1
# min-compare on pIC50 between a and b Record your answer as the label of the chosen record.
a

---

targetOrSystem: immunoproteasome LMP7/B5i subunit (Homo sapiens, UniProt P20618+P28062)
assayExplanation: Caliper-based proteasome enzymatic activity assay, LMP7
assayContext: human recombinant immunoproteasome 0.3 nM, FAM-peptide substrate 1 μM, 3 h at rt
pIC50: −log10 of the molar value.
quantity: pIC50

Before answering, review these 2 worked examples.
CC(C)(C=C(C#N)C(=O)N1CCC[C@@H]1COC(=O)N[C@@H](Cc1ccccc1)B(O)O)N1CCCCC1 [Example 20] ... 8.44
CC(C)(C=C(C#N)C(=O)N1CCCC[C@@H]1COC(=O)N[C@@H](Cc1ccc(C#N)cc1)B(O)O)N1CCC(F)(F)C1 [Example 122] ... 8.82

P: Cc1ccc(C[C@H](NC(=O)OC[C@H]2[C@H]3C[C@H]3CN2C(=O)C(C#N)=CC2(C)CCOCC2)B(O)O)cc1 [Example 92]
Q: CC(C)C=C(C#N)C(=O)N1CCCC[C@H]1COC(=O)N[C@@H](Cc1ccccc1)B(O)O [Example 13]
# min-compare on pIC50 between P and Q Record your answer as the label of the chosen record.
Q
